The reported measurements were obtained from ChEMBL document CHEMBL1799921.

- System: Streptococcus pyogenes
- experiment notes: Antibacterial activity against Streptococcus pyogenes after 18 hrs by macro-dilution test
- Format: functional

>  <compound>
Cc1cccc2cc(/C=N/NC(=S)NC3CCCCCCC3)c(Cl)nc12

>  <unit abbreviation>
mg/L

>  <MIC>
128

$$$$
>  <compound>
NC(=S)N/N=C/c1cc2ccccc2nc1Cl

>  <unit abbreviation>
mg/L

>  <MIC>
64

$$$$
>  <compound>
S=C(N/N=C/c1cc2ccccc2nc1Cl)NC1CCCCCCC1

>  <unit abbreviation>
mg/L

>  <MIC>
128

$$$$
>  <compound>
Cc1ccccc1NC(=S)N/N=C/c1cc2cccc(Cl)c2nc1Cl

>  <unit abbreviation>
mg/L

>  <MIC>
64

$$$$
>  <compound>
CC(=O)N(C1=NN(C(C)=O)C(c2cc3ccccc3nc2Cl)S1)c1ccc(C)cc1 (stereo not given)

>  <unit abbreviation>
mg/L

>  <MIC>
16

$$$$
>  <compound>
CC(=O)N(C1=NN(C(C)=O)C(c2cc3ccccc3nc2Cl)S1)c1ccc([N+](=O)[O-])cc1 (stereo not given)

>  <unit abbreviation>
mg/L

>  <MIC>
64

$$$$
>  <compound>
CC(=O)N1N=C(N(C(C)=O)C2CCCCCCC2)SC1c1cc2ccccc2nc1Cl (stereo not given)

>  <unit abbreviation>
mg/L

>  <MIC>
128

$$$$
>  <compound>
Cc1cccc2cc(/C=N/NC(=S)NC3CCCC3)c(Cl)nc12

>  <unit abbreviation>
mg/L

>  <MIC>
256

$$$$
>  <compound>
Cc1cccc2cc(/C=N/NC(=S)Nc3ccc([N+](=O)[O-])cc3)c(Cl)nc12

>  <unit abbreviation>
mg/L

>  <MIC>
32

$$$$
>  <compound>
CC(=O)N(C1=NN(C(C)=O)C(c2cc3ccccc3nc2Cl)S1)c1cc(F)ccc1F (stereo not given)

>  <unit abbreviation>
mg/L

>  <MIC>
64

$$$$
